test system: Cryptococcus neoformans; assay: Antifungal activity against Cryptococcus neoformans KCCM 50564 after 1 day by twofold broth dilution method; assay type: functional; settings: KCCM 50564, 24 h
recorded_endpoint: log10(MIC) (log10 of the value in µg/mL)
Friendly reminder: values = log10 of MIC, unit µg/mL.

Record `CCOC(=O)c1c2c(n3cc(F)ccc13)C(=O)c1cc(C(=O)OC)sc1C2=O` . Reported log10(MIC): 1.10

Per the record, `CCOC(=O)c1c2c(n3ccccc13)C(=O)c1cc(C(=O)OC)sc1C2=O` has log10(MIC) of 1.70

// recorded log10(MIC) for `COC(=O)c1cc2c(s1)C(=O)c1c(C(C)=O)c3ccc(Br)cn3c1C2=O` : 0.20

###

Overview of reported MIC across a group of compounds:
test system: Cryptococcus neoformans; experiment: Antifungal activity against Cryptococcus neoformans KCCM 50564 after 1 day by twofold broth dilution method; assay type: functional; settings: KCCM 50564, 24 h
Give the value in µg/mL but do not write µg/mL after it.

>>> df
                                   compound  endpoint_result
0  COC(=O)c1cc2c(s1)C(=O)C(Cl)=C([n+]1cccc(Br)c1)C2=O.[Cl-]               50

Record for `CCOC(=O)c1c2c(n3ccc(C#N)cc13)C(=O)c1cc(C(=O)OC)sc1C2=O` under target or system Cryptococcus neoformans: MIC reported as 25

Item: `COC(=O)c1cc2c(s1)C(=O)C(Cl)=C([n+]1cccc(Cl)c1)C2=O.[Cl-]` | System: Cryptococcus neoformans | MIC: 50

Kindly note: Cryptococcus neoformans, `COC(=O)c1cc2c(s1)C(=O)C(Cl)=C([n+]1ccc(C#N)cc1)C2=O.[Cl-]` , MIC value reported: 6.3

Record for `CCOC(=O)c1c2c(n3cc(Cl)ccc13)C(=O)c1cc(C(=O)OC)sc1C2=O` under target or system Cryptococcus neoformans: MIC reported as 25

GET /values?item= OC(Cn1cncn1)(Cn1cncn1)c1ccc(F)cc1F [FLUCONAZOLE] &system= Cryptococcus neoformans returns MIC: 6.3

With Cryptococcus neoformans as the test system, `COC(=O)c1cc2c(s1)C(=O)c1c(C(C)=O)c3ccc(C)cn3c1C2=O` showed MIC of 12.5

###

A collection of molecules and their measured MIC
tested on: Candida tropicalis; assay: Antifungal activity against Candida tropicalis Berkout KCCM 50662 after 1 day by twofold broth dilution method; assay type: functional; settings: Berkout KCCM 50662, 24 h
Note: unit µg/mL is implicit; provide only the numeric part.

In [3]: df
Out[3]:
                                  structure  recorded_endpoint  display_unit  endpoint_result
0  COC(=O)c1cc2c(s1)C(=O)c1c(C(C)=O)c3ccc(F)cn3c1C2=O                MIC         µg/mL               25
1  COC(=O)c1cc2c(s1)C(=O)C(Cl)=C([n+]1ccc(Cl)cc1)C2=O.[Cl-]                MIC         µg/mL               25
2  CCc1ccc2c(C(C)=O)c3c(n2c1)C(=O)c1cc(C(=O)OC)sc1C3=O                MIC         µg/mL               50

Per the record, `COC(=O)c1cc2c(s1)C(=O)c1c(C(C)=O)c3ccc(Br)cn3c1C2=O` has MIC of 12.5

###

test system: Candida tropicalis; assay: Antifungal activity against Candida tropicalis Berkout KCCM 50662 after 1 day by twofold broth dilution method; assay type: functional; conditions: Berkout KCCM 50662, 24 h
Readings of MIC for the listed molecules
Express your answer in µg/mL, writing the number without its unit.

>>> df
                                  structure  endpoint_result
0  CCc1ccc[n+](C2=C(Cl)C(=O)c3sc(C(=O)OC)cc3C2=O)c1.[Cl-]               25

Param item: `COC(=O)c1cc2c(s1)C(=O)c1c(C(C)=O)c3cc(Cl)ccn3c1C2=O` ; param system: Candida tropicalis; output MIC: 25

Sample `CCOC(=O)c1c2c(n3cc(C)ccc13)C(=O)c1cc(C(=O)OC)sc1C2=O` , system: Candida tropicalis. Its MIC is 12.5

###

tested on: Cryptococcus neoformans; test: Antifungal activity against Cryptococcus neoformans KCCM 50564 after 1 day by twofold broth dilution method; format: functional; conditions: KCCM 50564, 24 h
Measured MIC, listed per entry for reference.
Dear colleague, please return just the value in µg/mL, with no unit written.

Study these solved cases before continuing.
>>> print(df.to_string())
                                  structure  endpoint_result
0  CCOC(=O)c1c2c(n3cc(Br)ccc13)C(=O)c1cc(C(=O)OC)sc1C2=O              1.6
1  CCc1ccc[n+](C2=C(Cl)C(=O)c3sc(C(=O)OC)cc3C2=O)c1.[Cl-]             12.5
2  COC(=O)c1cc2c(s1)C(=O)c1c(C(C)=O)c3ccc(F)cn3c1C2=O               50
3  COC(=O)c1cc2c(s1)C(=O)c1c(C(C)=O)c3ccc(Cl)cn3c1C2=O              3.2
4  CCOC(=O)c1c2c(n3ccc(OC)cc13)C(=O)c1cc(C(=O)OC)sc1C2=O               50
5  COC(=O)c1cc2c(s1)C(=O)c1c(C(C)=O)c3cc(C#N)ccn3c1C2=O              6.3

Known value: Cryptococcus neoformans MIC of the compound `CCOC(=O)c1c2c(n3cc(C)ccc13)C(=O)c1cc(C(=O)OC)sc1C2=O` equals 12.5

Result for `COC(=O)c1cc2c(s1)C(=O)c1c(C(=O)OC)c3ccccn3c1C2=O` , tested on Cryptococcus neoformans, MIC: 12.5

`CCc1ccc2c(C(C)=O)c3c(n2c1)C(=O)c1cc(C(=O)OC)sc1C3=O` on Cryptococcus neoformans gives MIC = 6.3

Entry `COC(=O)c1cc2c(s1)C(=O)C(Cl)=C([n+]1ccc(OC)cc1)C2=O.[Cl-]` ; assay system Cryptococcus neoformans; MIC recorded at 50

###

system: Cryptococcus neoformans; experiment: Antifungal activity against Cryptococcus neoformans KCCM 50564 after 1 day by twofold broth dilution method; type: functional; conditions: KCCM 50564, 24 h
recorded_endpoint: MIC (µg/mL)
Just the number in µg/mL, nothing appended.

>>> df
                                   compound  endpoint_result
0  COC(=O)c1cc2c(s1)C(=O)c1c(C(C)=O)c3cc(Cl)ccn3c1C2=O             12.5
1           Nc1nc(=O)[nH]cc1F [FLUCYTOSINE]              6.3

Record `COC(=O)c1cc2c(s1)C(=O)C(Cl)=C([n+]1ccc(Cl)cc1)C2=O.[Cl-]` , field MIC: 12.5

###

test system: Candida tropicalis; experiment: Antifungal activity against Candida tropicalis Berkout KCCM 50662 after 1 day by twofold broth dilution method; format: functional; settings: Berkout KCCM 50662, 24 h
Criterion: MIC strictly under 10 µg/mL. Met: 1. Not met: -1.

In [3]: df
Out[3]:
                                  structure     target_of_assay  assigned_class
0  CCOC(=O)c1c2c(n3ccccc13)C(=O)c1cc(C(=O)OC)sc1C2=O  Candida tropicalis              -1

Asked: Please indicate whether the reported MIC of `CCOC(=O)c1c2c(n3cc(F)ccc13)C(=O)c1cc(C(=O)OC)sc1C2=O` is strictly below 10 µg/mL.
Given back: -1

Asked: For this molecule, is MIC lower than 10 µg/mL? `COC(=O)c1cc2c(s1)C(=O)c1c(C(C)=O)c3ccc(C)cn3c1C2=O`
Given back: -1

Asked: MIC strictly < 10 µg/mL for this molecule? `COC(=O)c1cc2c(s1)C(=O)c1c(C(C)=O)c3ccc(Cl)cn3c1C2=O`
Given back: 1

Asked: Lab note: confirm whether the reported MIC for this molecule is below 10 µg/mL, equality not counting. molecule: `COC(=O)c1cc2c(s1)C(=O)C(Cl)=C([n+]1cccc(Br)c1)C2=O.[Cl-]`
Given back: -1

Asked: Please let me know if `OC(Cn1cncn1)(Cn1cncn1)c1ccc(F)cc1F` shows MIC below 10 µg/mL.
Given back: 1

Asked: Problem: For the molecule `CCOC(=O)c1c2c(n3cc(Br)ccc13)C(=O)c1cc(C(=O)OC)sc1C2=O` , is MIC under 10 µg/mL?
Given back: 1

These measurements were taken from ChEMBL document CHEMBL2069251.
